The entries below are paired with their reported log2 fold change.
- assayed system: YPEL5 (UniProt P62699)
- Sequence (P62699 whole entry, looked up): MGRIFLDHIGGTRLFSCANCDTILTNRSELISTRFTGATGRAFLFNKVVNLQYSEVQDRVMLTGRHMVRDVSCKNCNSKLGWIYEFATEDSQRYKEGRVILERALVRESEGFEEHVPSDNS
- test description: log2 fold change, soluble protein after heating vs DMSO (PISA); higher = thermal stabilisation; K562 cells, 10 uM, 30 min; active = over 0.2 and 3.5 SD of the protein, either way, in both replicates (recomputed)
Targets with a hit are over-represented here; the source holds about 7,900 in all. About 0.6% of all pairs of compound and target were hits.
observation type: log2 fold change

compound | numeric value
CC(C)C[C@@H](C=O)NC(=O)[C@H](CC(C)C)NC(=O)[C@H](CC(C)C)NC(=O)OCc1ccccc1 | 0.05
C=CC(=O)N1CCC[C@@H](n2nc(-c3ccc(Oc4ccccc4)cc3)c3c(N)ncnc32)C1 [ibrutinib] | 0.054
COc1cc2nc(-c3cc(F)ccc3O)nc(N[C@@H]3CNC[C@H]3C(C)(C)O)c2cc1OC | 0.096
COc1ccc(Cn2ccc3ccc(C(=O)NO)cc32)cc1 | -0.269
Cc1ccc(NC(=O)c2cccc(C(C)(C)C#N)c2)cc1Nc1ccc2ncn(C)c(=O)c2c1 | -0.131
O=C(Nc1nc2ccccc2n1CCN1CCOCC1)c1cccc([N+](=O)[O-])c1 [IRAK-1-4 Inhibitor I] | -0.093
C#Cc1cccc(Nc2ncnc3cc(OCCOC)c(OCCOC)cc23)c1 [erlotinib] | 0.049
CC(C)(O)CC(=O)NCCn1ccc2ncnc(Nc3ccc(Oc4cccc(C(F)(F)F)c4)c(Cl)c3)c21 | 0.041
COc1cc(Nc2ncc3c(n2)-c2ccc(Cl)cc2C(c2c(F)cccc2OC)=NC3)ccc1C(=O)O [alisertib] | 0.086
CCCCN(Cc1ccc(C(=O)NO)cc1)C(=O)Nc1ccccc1 [Nexturastat A] | -0.144

* * *

- assayed system: ZNF609 (UniProt O15014)
- Sequence (O15014 whole entry, looked up): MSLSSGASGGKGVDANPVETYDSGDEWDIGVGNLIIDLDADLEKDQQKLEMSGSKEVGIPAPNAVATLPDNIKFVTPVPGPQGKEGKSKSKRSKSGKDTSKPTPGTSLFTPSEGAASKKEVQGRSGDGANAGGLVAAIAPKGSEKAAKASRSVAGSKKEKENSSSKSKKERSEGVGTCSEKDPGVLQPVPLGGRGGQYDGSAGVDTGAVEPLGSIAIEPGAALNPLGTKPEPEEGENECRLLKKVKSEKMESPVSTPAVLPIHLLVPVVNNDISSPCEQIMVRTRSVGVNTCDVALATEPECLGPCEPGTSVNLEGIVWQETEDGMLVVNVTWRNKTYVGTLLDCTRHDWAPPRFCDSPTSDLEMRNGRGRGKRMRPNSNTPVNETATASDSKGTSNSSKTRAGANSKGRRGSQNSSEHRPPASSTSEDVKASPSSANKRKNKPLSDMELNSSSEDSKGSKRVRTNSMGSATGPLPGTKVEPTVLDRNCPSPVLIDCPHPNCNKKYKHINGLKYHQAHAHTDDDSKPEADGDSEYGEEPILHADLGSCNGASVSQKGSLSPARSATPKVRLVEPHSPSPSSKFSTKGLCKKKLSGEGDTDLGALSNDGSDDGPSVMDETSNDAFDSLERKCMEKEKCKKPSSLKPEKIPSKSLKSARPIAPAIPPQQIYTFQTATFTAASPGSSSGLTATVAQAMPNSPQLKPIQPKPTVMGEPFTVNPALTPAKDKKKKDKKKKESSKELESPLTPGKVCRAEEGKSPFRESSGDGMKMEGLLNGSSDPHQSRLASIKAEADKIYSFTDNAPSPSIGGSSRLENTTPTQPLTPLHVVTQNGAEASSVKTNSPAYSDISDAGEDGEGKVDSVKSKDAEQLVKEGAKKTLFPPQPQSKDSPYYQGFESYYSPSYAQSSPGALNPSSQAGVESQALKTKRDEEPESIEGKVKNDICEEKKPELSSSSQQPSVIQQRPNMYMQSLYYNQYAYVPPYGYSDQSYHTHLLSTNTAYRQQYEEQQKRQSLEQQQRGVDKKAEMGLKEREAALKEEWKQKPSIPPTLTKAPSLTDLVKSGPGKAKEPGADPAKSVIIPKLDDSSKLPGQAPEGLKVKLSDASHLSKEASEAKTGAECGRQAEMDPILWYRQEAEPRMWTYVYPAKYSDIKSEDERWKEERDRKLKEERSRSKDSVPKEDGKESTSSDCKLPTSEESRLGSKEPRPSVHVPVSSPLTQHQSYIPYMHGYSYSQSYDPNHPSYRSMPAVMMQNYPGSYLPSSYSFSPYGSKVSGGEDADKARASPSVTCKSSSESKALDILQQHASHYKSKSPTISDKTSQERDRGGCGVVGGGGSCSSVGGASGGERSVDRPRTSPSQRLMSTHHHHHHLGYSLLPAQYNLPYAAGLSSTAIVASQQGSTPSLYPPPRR
- test description: log2 fold change, soluble protein after heating vs DMSO (PISA); higher = thermal stabilisation; K562 cells, 10 uM, 30 min; active = over 0.2 and 3.5 SD of the protein, either way, in both replicates (recomputed)
About 7,900 targets were measured; listed, in parts, are those with a hit and a random draw of the rest. About 0.6% of all pairs of compound and target were hits.
Outcome codes: label 1 for active, label 0 for inactive

molecule | assayed system | class name
CCCCN(Cc1ccc(C(=O)NO)cc1)C(=O)Nc1ccccc1 | ZNF609 (UniProt O15014) | label 1
c1cn2cc(-c3ccc4cn[nH]c4c3)nc(Nc3ccc(N4CCOCC4)cc3)c2n1 | ZNF609 (UniProt O15014) | label 0
CC[C@H](C)[C@H](NC(=O)[C@H]([C@@H](C)CC)N(C)C(C)=O)C(=O)N[C@H](C(=O)N[C@@H](CC(C)C)C(=O)[C@@]1(C)CO1)[C@@H](C)O | ZNF609 (UniProt O15014) | label 0
Cc1cccc(CC(=O)N2CCc3c2ccc(-c2cn(C)c4ncnc(N)c24)c3F)n1 | ZNF609 (UniProt O15014) | label 0
c1cc(OCCN2CCCCC2)cc(-c2n[nH]c3ccc(-c4nnc[nH]4)cc23)c1 | ZNF609 (UniProt O15014) | label 0
C[C@@H](N)c1ccc(C(=O)Nc2ccnc3[nH]ccc23)cc1 | ZNF609 (UniProt O15014) | label 0
Cn1c2cc(S(C)=O)sc2c2cnn(Cc3cccc(N)c3)c(=O)c21 (centres undefined) | ZNF609 (UniProt O15014) | label 0
NC1(Cc2ccc(Cl)cc2)CCN(c2ncnc3[nH]ccc23)CC1 | ZNF609 (UniProt O15014) | label 0
O=C1NC(=O)C(c2cnc3ccccn23)=C1c1cn2c3c(cc(F)cc13)CN(C(=O)N1CCCCC1)CC2 | ZNF609 (UniProt O15014) | label 1
Cc1cc(Nc2cc(CN3CCOCC3)c3nc(C)c(Cc4ccc(Cl)cc4F)n3n2)n[nH]1 | ZNF609 (UniProt O15014) | label 0
COc1cc2nc(-c3cc(F)ccc3O)nc(N[C@@H]3CNC[C@H]3C(C)(C)O)c2cc1OC | ZNF609 (UniProt O15014) | label 0
COc1cc2ncnc(Nc3ccc(F)c(Cl)c3)c2cc1OCCCN1CCOCC1 | ZNF609 (UniProt O15014) | label 0
Cc1ccc(NC(=O)c2cccc(N(C)C)c2)cc1NC(=O)c1ccc(O)cc1 | ZNF609 (UniProt O15014) | label 0
CNCc1ccc(-c2[nH]c3cc(F)cc4c3c2CCNC4=O)cc1 | ZNF609 (UniProt O15014) | label 0
Cc1cc(Nc2cc(N3CCN(C)CC3)nc(Sc3ccc(NC(=O)C4CC4)cc3)n2)n[nH]1 | ZNF609 (UniProt O15014) | label 0
CN(C)CC(=O)Nc1ccc2[nH]c(=O)c3ccccc3c2c1 | ZNF609 (UniProt O15014) | label 0
C=CC(=O)N1CCC[C@@H](n2nc(-c3ccc(Oc4ccccc4)cc3)c3c(N)ncnc32)C1 | ZNF609 (UniProt O15014) | label 0
CC[C@H](C)n1cc(C)c2c(C(=O)NCc3c(C)cc(C)[nH]c3=O)cc(-c3ccc(N4CCNCC4)nc3)cc21 | ZNF609 (UniProt O15014) | label 0
CCN(CCCOc1ccc2c(Nc3cc(CC(=O)Nc4cccc(F)c4)[nH]n3)ncnc2c1)CCOP(=O)(O)O | ZNF609 (UniProt O15014) | label 0
O=C(CCCCCCNC(=O)c1cnc(N(c2ccccc2)c2ccccc2Cl)nc1)NO | ZNF609 (UniProt O15014) | label 0
CC(C)C[C@@H](C=O)NC(=O)[C@H](CC(C)C)NC(=O)[C@H](CC(C)C)NC(=O)OCc1ccccc1 | ZNF609 (UniProt O15014) | label 0
Cn1cncc1[C@@](N)(c1ccc(Cl)cc1)c1ccc2c(c1)c(-c1cccc(Cl)c1)cc(=O)n2C | ZNF609 (UniProt O15014) | label 0
Cc1ncc(-c2ccnc(Nc3ccc(S(C)(=O)=O)cc3)n2)n1C(C)C | ZNF609 (UniProt O15014) | label 0
NC(=O)Nc1cc(-c2cccc(F)c2)sc1C(=O)N[C@H]1CCCNC1 | ZNF609 (UniProt O15014) | label 0
CN1CCC(CNc2ccc3ncc(-c4cccc(OC(F)(F)F)c4)n3n2)CC1 | ZNF609 (UniProt O15014) | label 0
O=C1NC(=NCc2cccs2)S/C1=C\c1ccc2ncccc2c1 | ZNF609 (UniProt O15014) | label 0
CS(=O)(=O)CCNCc1ccc(-c2ccc3ncnc(Nc4ccc(OCc5cccc(F)c5)c(Cl)c4)c3c2)o1 | ZNF609 (UniProt O15014) | label 0
CC(C)(O)CC(=O)NCCn1ccc2ncnc(Nc3ccc(Oc4cccc(C(F)(F)F)c4)c(Cl)c3)c21 | ZNF609 (UniProt O15014) | label 0
CCCS(=O)(=O)Nc1ccc(F)c(C(=O)c2c[nH]c3ncc(Cl)cc23)c1F | ZNF609 (UniProt O15014) | label 0
Cc1ccc2c(=O)c3ccccc3n(CCCN)c2c1C | ZNF609 (UniProt O15014) | label 0
O=C(Nc1cccc(Nc2ncc(Br)c(NCCc3cnc[nH]3)n2)c1)N1CCCC1 | ZNF609 (UniProt O15014) | label 0
COC(=O)[C@H](CCSC)NC(=O)c1ccc(NC[C@@H](N)CS)cc1-c1ccccc1 | ZNF609 (UniProt O15014) | label 0
CCCS(=O)(=O)Nc1ccc(F)c(C(=O)c2c[nH]c3ncc(-c4ccc(Cl)cc4)cc23)c1F | ZNF609 (UniProt O15014) | label 0
CC(C)N(C[C@H]1O[C@@H](n2cnc3c(N)ncnc32)[C@H](O)[C@@H]1O)[C@H]1C[C@@H](CCc2nc3cc(C(C)(C)C)ccc3[nH]2)C1 | ZNF609 (UniProt O15014) | label 0

* * *

- assayed system: ZEB2 (UniProt O60315)
- Sequence (O60315 whole entry, looked up): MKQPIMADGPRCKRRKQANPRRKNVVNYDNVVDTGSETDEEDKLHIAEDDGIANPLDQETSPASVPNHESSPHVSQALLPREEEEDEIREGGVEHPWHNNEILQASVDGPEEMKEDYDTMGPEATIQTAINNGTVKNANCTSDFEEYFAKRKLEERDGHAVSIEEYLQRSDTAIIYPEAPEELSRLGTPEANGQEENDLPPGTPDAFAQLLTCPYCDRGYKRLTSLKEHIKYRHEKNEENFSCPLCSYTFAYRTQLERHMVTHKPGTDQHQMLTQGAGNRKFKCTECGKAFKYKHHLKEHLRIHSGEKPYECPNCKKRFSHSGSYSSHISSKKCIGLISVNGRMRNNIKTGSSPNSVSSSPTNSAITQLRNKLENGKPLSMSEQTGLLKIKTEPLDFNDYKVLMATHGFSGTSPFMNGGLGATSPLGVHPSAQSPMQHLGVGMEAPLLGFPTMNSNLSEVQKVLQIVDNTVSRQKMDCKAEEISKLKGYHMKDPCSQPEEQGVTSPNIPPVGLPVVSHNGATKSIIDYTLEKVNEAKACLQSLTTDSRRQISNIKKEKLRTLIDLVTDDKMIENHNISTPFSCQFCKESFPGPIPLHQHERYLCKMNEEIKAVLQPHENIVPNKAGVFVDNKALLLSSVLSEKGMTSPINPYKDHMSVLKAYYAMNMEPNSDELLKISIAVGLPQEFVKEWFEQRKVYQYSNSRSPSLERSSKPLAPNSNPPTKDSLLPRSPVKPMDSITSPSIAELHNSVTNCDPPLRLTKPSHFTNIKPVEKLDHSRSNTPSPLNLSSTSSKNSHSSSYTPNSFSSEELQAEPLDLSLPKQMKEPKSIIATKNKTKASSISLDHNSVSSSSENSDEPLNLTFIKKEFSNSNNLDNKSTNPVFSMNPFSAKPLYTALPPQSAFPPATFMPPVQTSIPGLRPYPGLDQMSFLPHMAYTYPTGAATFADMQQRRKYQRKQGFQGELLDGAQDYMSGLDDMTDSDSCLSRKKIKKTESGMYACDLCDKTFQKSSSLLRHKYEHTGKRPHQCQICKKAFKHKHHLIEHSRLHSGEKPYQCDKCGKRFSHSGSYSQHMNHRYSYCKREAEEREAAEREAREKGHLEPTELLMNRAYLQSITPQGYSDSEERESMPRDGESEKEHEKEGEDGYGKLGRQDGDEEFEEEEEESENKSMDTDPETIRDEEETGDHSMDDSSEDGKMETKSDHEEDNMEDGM
- test description: log2 fold change, soluble protein after heating vs DMSO (PISA); higher = thermal stabilisation; K562 cells, 10 uM, 30 min; active = over 0.2 and 3.5 SD of the protein, either way, in both replicates (recomputed)
About 7,900 targets were measured; listed, in parts, are those with a hit and a random draw of the rest. About 0.6% of all pairs of compound and target were hits.
The entries below are paired with their reported log2 fold change.

molecule | log2 fold change
Fc1ccc(Cl)cc1-c1nc(Nc2ccncc2)c2nccnc2n1 | -0.099
CC[C@H](C)n1cc(C)c2c(C(=O)NCc3c(C)cc(C)[nH]c3=O)cc(-c3ccc(N4CCNCC4)nc3)cc21 | 0.173
Cc1ccc(-n2nc(C(C)(C)C)cc2NC(=O)Nc2ccc(OCCN3CCOCC3)c3ccccc23)cc1 [doramapimod] | 0.032
Cc1ccc(NC(=O)c2ccc(CN3CC[C@H](N(C)C)C3)c(C(F)(F)F)c2)cc1Nc1nccc(-c2cncnc2)n1 [bafetinib] | -0.017
CC(C)(C)Cn1c(N)nc2ccc(-c3[nH]c(C(C)(C)C)nc3-c3ccc(F)cc3)nc21 [ralimetinib] | -0.075
CC(C)c1cnn2c(NCc3ccccc3)cc(NCCCCCCN)nc12 | -0.187
CC[C@H](C)[C@H](NC(=O)[C@H]([C@@H](C)CC)N(C)C(C)=O)C(=O)N[C@H](C(=O)N[C@@H](CC(C)C)C(=O)[C@@]1(C)CO1)[C@@H](C)O [epoxomicin] | -0.026
NC1(Cc2ccc(Cl)cc2)CCN(c2ncnc3[nH]ccc23)CC1 | -0.149
O=C1NC(=O)/C(=C\c2ccc3nccnc3c2)S1 | -0.177
NC(=O)Nc1cc(-c2cccc(F)c2)sc1C(=O)N[C@H]1CCCNC1 | 0.003
COc1cc2ncnc(Nc3ccc(F)c(Cl)c3)c2cc1OCCCN1CCOCC1 [gefitinib] | -0.086
CCN(CCCOc1ccc2c(Nc3cc(CC(=O)Nc4cccc(F)c4)[nH]n3)ncnc2c1)CCOP(=O)(O)O [barasertib] | 0.117
Oc1cc(-c2nc(-c3ccccc3)[nH]c2-c2ccncc2)ccc1Cl | -0.053
C#Cc1cccc(Nc2ncnc3cc(OCCOC)c(OCCOC)cc23)c1 [erlotinib] | 0.101
CN(C)CC(=O)Nc1ccc2[nH]c(=O)c3ccccc3c2c1 | -0.124
NCC(=O)Nc1ccc(-n2nc(C(F)(F)F)cc2-c2ccc3c(ccc4ccccc43)c2)cc1 | -0.343
Cc1ccc(Sc2cncc3sc(C(N)=O)cc23)cc1 | -0.012
CC(C)C[C@@H](C=O)NC(=O)[C@H](CC(C)C)NC(=O)[C@H](CC(C)C)NC(=O)OCc1ccccc1 | 0.131
CNc1nc(-c2ccc3c(N)n[nH]c3c2)cc(N2C[C@@H](C(=O)NC3CCCCC3)CC[C@H]2C)n1 | -0.09
COc1cccc2cc(-c3nc([C@H]4CC[C@H](C(=O)O)CC4)n4ncnc(N)c34)[nH]c12 | 0.051
CC[C@@H]1C(=O)N(C)c2cnc(Nc3ccc(C(=O)N[C@H]4CC[C@H](N5CCN(CC6CC6)CC5)CC4)cc3OC)nc2N1C(C)C [volasertib] | 0.001
NC(=O)c1ccc2nc(-c3ccc(Oc4ccc(Cl)cc4)cc3)[nH]c2c1 | 0.029
Cn1cc(-c2ccc3nnc(C(F)(F)c4ccc5ncccc5c4)n3n2)cn1 | -0.135
C=CC(=O)N1CCC[C@@H](n2nc(-c3ccc(Oc4ccccc4)cc3)c3c(N)ncnc32)C1 [ibrutinib] | 0.029
C[C@H](Nc1ncnc2nc[nH]c12)c1cc2cccc(Cl)c2c(=O)n1-c1ccccc1 [duvelisib] | 0.05
Cc1ccc2c(=O)c3ccccc3n(CCCN)c2c1C | -0.476
CN1CCN(CCOc2cc(OC3CCOCC3)c3c(Nc4c(Cl)ccc5c4OCO5)ncnc3c2)CC1 [saracatinib] | 0.008
FC(F)(F)c1ccc(/C=C/c2nc(COc3ccc(CCCCn4ccnn4)cc3)co2)cc1 [mubritinib] | -0.114
CS(=O)(=O)CCNCc1ccc(-c2ccc3ncnc(Nc4ccc(OCc5cccc(F)c5)c(Cl)c4)c3c2)o1 [lapatinib] | 0.019
CCCS(=O)(=O)Nc1ccc(F)c(C(=O)c2c[nH]c3ncc(Cl)cc23)c1F | 0.123
CN(CCOc1ccc(C[C@@H]2SC(=O)NC2=O)cc1)c1ccccn1 (racemic) [rosiglitazone] | 0.078
COc1cc2nc(-c3cc(F)ccc3O)nc(N[C@@H]3CNC[C@H]3C(C)(C)O)c2cc1OC | -0.018
CNC(=O)c1ccc(Nc2ncc(C(F)(F)F)c(NCc3nccnc3N(C)S(C)(=O)=O)n2)cc1 [defactinib] | 0.019
Cc1cc(SCc2sc(-c3ccc(C(F)(F)F)cc3)nc2C)ccc1OCC(=O)O | 0.089
Cc1cc(Nc2cc(N3CCN(C)CC3)nc(Sc3ccc(NC(=O)C4CC4)cc3)n2)n[nH]1 [tozasertib] | 0.022
